Answer each item with its documented Ki.
- experiment: Inhibition of HCV NS4A-tethered single chain NS3 serine protease assessed as Ac-DTEDVVP(Nva)- O-PAP substrate hydrolysis by spectrophotometric assay
- Parameters: species or system Hepacivirus hominis
Please reply with the bare figure in nM and do not write the unit itself.

Please report the recorded Ki for CCC[C@H](NC(=O)[C@@H]1[C@@H]2[C@H](CN1C(=O)[C@@H](NC(=O)NC1(CS(=O)(=O)NC)CCCCC1)C(C)(C)C)C2(C)C)C(=O)C(=O)NC1CC1 .
15

Please report the recorded Ki for CCC[C@H](NC(=O)[C@@H]1[C@@H]2[C@H](CN1C(=O)[C@@H](NC(=O)NC1(CS(=O)(=O)N(CC)C3CC3)CCCCC1)C(C)(C)C)C2(C)C)C(=O)C(=O)NC1CC1 .
5

Please report the recorded Ki for CCC[C@H](NC(=O)[C@@H]1[C@@H]2[C@H](CN1C(=O)[C@@H](NC(=O)NC1(CS(=O)(=O)N(C)C(C)C)CCCCC1)C(C)(C)C)C2(C)C)C(=O)C(=O)NC1CC1 .
7

Please report the recorded Ki for CC(C)(C)[C@H](NC(=O)NC1(C(=O)OCc2ccccc2)CCCCC1)C(=O)N1C[C@H]2[C@@H]([C@H]1C(=O)NC(CC1CC1)C(=O)C(N)=O)C2(C)C (stereo not given in full) .
49

Please report the recorded Ki for C#CCCC(NC(=O)[C@@H]1[C@@H]2[C@H](CN1C(=O)[C@@H](NC(=O)N[C@H](C(=O)C1CC1)C1CCCCC1)C(C)(C)C)C2(C)C)C(=O)C(=O)NC1CC1 (stereo not given in full) .
4

* * *

- experiment: AUC (0 to 6 hrs) in dog at 3 mg/kg, po
- Format: ADME, organism-based, Canis lupus familiaris
- Parameters: time < 6 hr, dose 3 mg/kg, route oral
- run_parameters: plasma
experimental_endpoint: AUC(0-t) at 6 h (µM·h)
Please reply with the bare figure in µM·h and do not write the unit itself.

Please report the recorded AUC(0-t) at 6 h for CC(C)(C)NC(=O)N[C@H](C(=O)N1C[C@H]2[C@@H]([C@H]1C(=O)NC(CC1CCC1)C(=O)C(N)=O)C2(C)C)C(C)(C)C (stereo partly specified) [BOCEPREVIR] .
3.1

* * *

Answer each item with its documented log10(AUC(0-t) at 6 h).
- experiment: AUC (0 to 6 hrs) in dog at 2 mg/kg, po
- Type: ADME, organism-based, Canis lupus familiaris
- Design: time < 6 hr, dose 2 mg/kg, route oral
- run_parameters: plasma
Note the log scale: values are log10 of AUC(0-t) at 6 h expressed in µM·h.

Please report the recorded log10(AUC(0-t) at 6 h) for CCC[C@H](NC(=O)[C@@H]1[C@@H]2[C@H](CN1C(=O)[C@@H](NC(=O)NC1(CS(=O)(=O)N(C)C(C)(C)CF)CCCCC1)C(C)(C)C)C2(C)C)C(=O)C(=O)NC1CC1 .
-0.70

Please report the recorded log10(AUC(0-t) at 6 h) for CN(C1CC1)S(=O)(=O)CC1(NC(=O)N[C@H](C(=O)N2C[C@H]3[C@@H]([C@H]2C(=O)N[C@@H](CC2CC2)C(=O)C(=O)NC2CC2)C3(C)C)C(C)(C)C)CCCCC1 .
0.15

Please report the recorded log10(AUC(0-t) at 6 h) for CCC[C@H](NC(=O)[C@@H]1[C@@H]2[C@H](CN1C(=O)[C@@H](NC(=O)NC1(CS(=O)(=O)N(CC)C3CC3)CCCCC1)C(C)(C)C)C2(C)C)C(=O)C(=O)NC1CC1 .
0.90

Please report the recorded log10(AUC(0-t) at 6 h) for C#CCCC(NC(=O)[C@@H]1[C@@H]2[C@H](CN1C(=O)[C@@H](NC(=O)N[C@H](C(=O)C1CC1)C1CCCCC1)C(C)(C)C)C2(C)C)C(=O)C(=O)NC1CC1 (some centres not stated) .
-1.00

Please report the recorded log10(AUC(0-t) at 6 h) for CCC[C@H](NC(=O)C1[C@@H]2[C@H](CN1C(=O)[C@@H](NC(=O)NC1([C@@H](C)S(=O)(=O)N(C)C)CCCCC1)C(C)(C)C)C2(C)C)C(=O)C(=O)NC1CC1 (some centres not stated) .
-1.00

Please report the recorded log10(AUC(0-t) at 6 h) for CCC[C@H](NC(=O)[C@@H]1[C@@H]2[C@H](CN1C(=O)[C@@H](NC(=O)NC1(CS(=O)(=O)N(C)C(C)(C)C)CCCCC1)C(C)(C)C)C2(C)C)C(=O)C(=O)NC1CC1 .
-0.70

Please report the recorded log10(AUC(0-t) at 6 h) for CCC[C@H](NC(=O)[C@@H]1[C@@H]2[C@H](CN1C(=O)[C@@H](NC(=O)NC1(CS(=O)(=O)N(C(C)C)C3CC3)CCCCC1)C(C)(C)C)C2(C)C)C(=O)C(=O)NC1CC1 .
-0.30
